test-protocol: Half life in Sprague-Dawley rat at 2 mg/kg, iv
Type: ADME, organism-based
Set-up: dose 2 mg/kg, route intravenous
conditions-used: in vivo
readout-kind: half-life (h)

>  <molecule>
O=C(Nc1ccccc1F)NC1N=C(c2ccccc2)c2ccccc2NC1=O (stereo not drawn)

>  <readout-kind>
half-life

>  <result>
3.7

$$$$
>  <molecule>
COc1ccccc1C(=O)NC1N=C(c2ccccc2)c2ccccc2NC1=O (stereo not drawn)

>  <readout-kind>
half-life

>  <result>
0.4

$$$$
>  <molecule>
CC(=O)NC1N=C(c2ccccc2)c2ccccc2NC1=O (stereo not drawn)

>  <readout-kind>
half-life

>  <result>
5

$$$$

---

test-protocol: Tmax in Sprague-Dawley rat at 2 mg/kg, iv
Type: ADME, organism-based
Design: dose 2 mg/kg, route intravenous
conditions-used: in vivo
Reported Tmax values follow for various compounds
readout-kind: Tmax (min)

>  <compound>
COc1ccccc1C(=O)NC1N=C(c2ccccc2)c2ccccc2NC1=O (stereo not drawn)

>  <readout-kind>
Tmax

>  <result>
4.8

$$$$
>  <compound>
CC(=O)NC1N=C(c2ccccc2)c2ccccc2NC1=O (stereo not drawn)

>  <readout-kind>
Tmax

>  <result>
4.8

$$$$
>  <compound>
O=C(Nc1ccccc1F)NC1N=C(c2ccccc2)c2ccccc2NC1=O (stereo not drawn)

>  <readout-kind>
Tmax

>  <result>
4.8

$$$$

---

test-protocol: Cmax in Sprague-Dawley rat at 20 mg/kg, po
Format: ADME, organism-based
Set-up: dose 20 mg/kg, route oral
conditions-used: in vivo
Reported Cmax values follow for various compounds

>  <compound>
COc1cc([N+](=O)[O-])ccc1C(=O)NC1N=C(c2ccccc2)c2ccccc2NC1=O (stereo not drawn)

>  <value-unit>
ng/mL

>  <Cmax>
1670

$$$$
>  <compound>
COc1cc(Cl)ccc1C(=O)NC1N=C(c2ccccc2)c2ccccc2NC1=O (stereo not drawn)

>  <value-unit>
ng/mL

>  <Cmax>
273

$$$$
>  <compound>
COc1ccc(F)cc1C(=O)NC1N=C(c2ccccc2)c2ccccc2NC1=O (stereo not drawn)

>  <value-unit>
ng/mL

>  <Cmax>
10.3

$$$$

---

test-protocol: Half life in Sprague-Dawley rat at 25 mg/kg, po
Format: ADME, organism-based
Parameters: dose 25 mg/kg, route oral
conditions-used: in vivo
readout-kind: half-life (h)

>  <molecule>
CC(=O)NC1N=C(c2ccccc2)c2ccccc2NC1=O (stereo unspecified)

>  <result>
4.4

$$$$

---

test-protocol: Apparent oral clearance in Sprague-Dawley rat at 25 mg/kg, po
Format: ADME, organism-based
Set-up: dose 25 mg/kg, route oral
conditions-used: in vivo
readout-kind: CL/F (mL/min/kg)

>  <molecule>
CC(=O)NC1N=C(c2ccccc2)c2ccccc2NC1=O (stereo unspecified)

>  <readout-kind>
CL/F

>  <result>
7.3

$$$$

---

Test system: HEp-2
test-protocol: Cytotoxicity against Hep2 cell at 50 uM
Format: functional, cell-based
conditions-used: Homo sapiens

>  <molecule>
O=C(NC1N=C(c2ccccc2)c2ccccc2NC1=O)c1ccccc1OC(F)(F)F (configuration not stated)

>  <Activity>
Not toxic

$$$$
>  <molecule>
CC(=O)NC1N=C(c2ccccc2)c2ccccc2NC1=O (configuration not stated)

>  <Activity>
Not toxic

$$$$
>  <molecule>
O=C(NC1N=C(c2ccccc2)c2ccccc2NC1=O)c1ccco1 (configuration not stated)

>  <Activity>
Not toxic

$$$$
>  <molecule>
O=C(Nc1ccccc1F)OC1N=C(c2ccccc2)c2ccccc2NC1=O (configuration not stated)

>  <Activity>
Not toxic

$$$$
>  <molecule>
Cc1cc(C(=O)NC2N=C(c3ccccc3)c3ccccc3NC2=O)oc1C (configuration not stated)

>  <Activity>
Not toxic

$$$$
>  <molecule>
COc1ccc(C2=NC(NC(=O)c3ccccc3OC)C(=O)Nc3ccccc32)cc1 (configuration not stated)

>  <Activity>
Not toxic

$$$$
>  <molecule>
COc1ccc(CNC2N=C(c3ccccc3)c3ccccc3NC2=O)cc1 (configuration not stated)

>  <Activity>
Not toxic

$$$$
>  <molecule>
CNc1ccccc1C(=O)NC1N=C(c2ccccc2)c2ccccc2NC1=O (configuration not stated)

>  <Activity>
Not toxic

$$$$
>  <molecule>
O=C(NC1N=C(c2ccccc2)c2ccccc2NC1=O)c1cccs1 (configuration not stated)

>  <Activity>
Not toxic

$$$$
>  <molecule>
O=C1Nc2ccccc2C(c2ccccc2)=NC1NC(=O)C1CCCO1 (configuration not stated)

>  <Activity>
Not toxic

$$$$
>  <molecule>
COc1ccccc1C(=O)NC1N=C(c2ccc(F)cc2)c2ccccc2NC1=O (configuration not stated)

>  <Activity>
Not toxic

$$$$
>  <molecule>
COc1ccc2c(c1)C(c1ccccc1)=NC(NC(=O)c1ccccc1OC)C(=O)N2 (configuration not stated)

>  <Activity>
Not toxic

$$$$
>  <molecule>
O=C1Nc2ccccc2C(c2ccccc2)=NC1N1CCOCC1 (configuration not stated)

>  <Activity>
Not toxic

$$$$
>  <molecule>
O=C(NC1N=C(c2ccc(C(F)(F)F)cc2)c2ccccc2NC1=O)c1ccco1 (configuration not stated)

>  <Activity>
Not toxic

$$$$
>  <molecule>
COc1cc2c(cc1OC)C(c1ccccc1)=NC(NC(=O)c1ccccc1OC)C(=O)N2 (configuration not stated)

>  <Activity>
Not toxic

$$$$
>  <molecule>
O=C(NC1N=C(c2ccccc2)c2ccccc2NC1=O)c1ccccc1CN1CCOCC1 (configuration not stated)

>  <Activity>
Not toxic

$$$$
>  <molecule>
COc1cccc(C(=O)NC2N=C(c3ccccc3)c3ccccc3NC2=O)c1 (configuration not stated)

>  <Activity>
Not toxic

$$$$
>  <molecule>
O=C1Nc2ccccc2C(c2ccccc2)=NC1NC(=O)N1CCOCC1 (configuration not stated)

>  <Activity>
Not toxic

$$$$
>  <molecule>
CN1C(=O)C(NC(=O)Nc2ccccc2F)N=C(c2ccccc2)c2ccccc21 (configuration not stated)

>  <Activity>
Not toxic

$$$$
>  <molecule>
O=C(NC1N=C(c2ccccc2)c2ccccc2NC1=O)c1cccc(OC(F)(F)F)c1 (configuration not stated)

>  <Activity>
Not toxic

$$$$
>  <molecule>
O=C(NC1N=C(C2CCCCC2)c2ccccc2NC1=O)c1ccco1 (configuration not stated)

>  <Activity>
Not toxic

$$$$
>  <molecule>
O=C(NC1N=C(c2ccccc2)c2ccccc2NC1=O)c1ccccc1 (configuration not stated)

>  <Activity>
Not toxic

$$$$
